Provenance of the data: PubChem BioAssay (NCI)

System: BT-549 breast
Test: NCI tumour cell line growth inhibition, 48 h
The entries below are paired with their reported TGI.
I only need the number, in µM, no unit after it.

> print(dat)
                            compound.smiles  units.symbol  reported.result
1  CN1CCN(c2ccc(NC3=CC(=O)c4ncncc4C3=O)cc2)CC1            µM             3.04

Okay, now this compound:
# get_value(readout='TGI', item= "O=C(NCCNCCO)c1ccc(Nc2nc3ccccc3c3occc23)cc1" )
34.2

* * *

Tested on: SN12C renal
Experiment: NCI tumour cell line growth inhibition, 48 h
The entries below are paired with their reported TGI.
I only need the number, in µM, no unit after it.

> print(dat)
                            compound.smiles  reported.result
1  CN1CCN(c2ccc(NC3=CC(=O)c4ncncc4C3=O)cc2)CC1            0.969

# get_value(readout='TGI', item= "Clc1ccc(-c2nc(NCc3ccco3)c3ccccc3n2)c(Cl)c1" )
44.9

What about "O=C1C(Cl)=C(NCCCN(CCCNC2=C(Cl)C(=O)c3ccccc3C2=O)C2=C(Cl)C(=O)c3ccccc3C2=O)C(=O)c2ccccc21" ?
3.51

What about "CC1=C[C@@H]2c3c(c(O)c(O)c4oc5cc(O)cc(O)c5c(=O)c34)[C@@H](c3cc(O)c(O)c4oc5cc(O)cc(O)c5c(=O)c34)[C@@H]2C(C)(C)C1" ?
23

* * *

System: 786-0 renal
Assay: NCI tumour cell line growth inhibition, 48 h; in the data active means GI50 below about 0.43 µM; inactive means the rest
Select the matching outcome among true (1) (active), false (0) (inactive)

Tell me the assay call for "COC(=O)c1cc(-c2ccc(S(C)(=O)=O)cc2)[nH]c1N/N=C/c1c(Cl)cccc1Cl" please.
false (0)

What about "COC(=O)CC1=C(C)/C(=C/c2[nH]c(-c3ccc[nH]3)cc2OC)N=C1C" ?
true (1)

What about "O=C(NCCNCCO)c1ccc(Nc2nc3ccccc3c3occc23)cc1" ?
false (0)

What about CC(C)(C)[Si](C)(C)OC1[C@@H](COC(=O)NC(=O)CCl)O[C@@H](n2cnc3c(N)ncnc32)[C@H]1O[Si](C)(C)C(C)(C)C (stereo not given in full) ?
false (0)

What about "CN1CCN(c2ccc(NC3=CC(=O)c4ncncc4C3=O)cc2)CC1" ?
true (1)

What about "CC1=C[C@@H]2c3c(c(O)c(O)c4oc5cc(O)cc(O)c5c(=O)c34)[C@@H](c3cc(O)c(O)c4oc5cc(O)cc(O)c5c(=O)c34)[C@@H]2C(C)(C)C1" ?
false (0)

What about "C(=N\Nc1ccc2ccccc2n1)/c1ccccn1" ?
true (1)

What about COc1cc(C2NC(=O)C(C#N)=C(Nc3cccc(C)c3)S2)ccc1O (stereo not given) ?
false (0)

What about CN(CCCCCl)P(=O)(OCc1ccc([N+](=O)[O-])o1)OCC1OC(n2cc([N+](=O)[O-])c(=O)[nH]c2=O)CC1O (stereo not given) ?
false (0)

What about "Fc1ccc(Nc2nc(Nc3ccc(-c4nc5ccccc5[nH]4)cc3)c3cn[nH]c3n2)cc1" ?
false (0)

* * *

Tested on: SN12C renal
Test: NCI tumour cell line growth inhibition, 48 h
The entries below are paired with their reported GI50.

> print(dat)
                                   molecule  reported.result
1  Cc1c(C(N)=O)sc2nc(C)n(/N=c3\scc(-c4ccccc4)n3Cc3ccccc3)c(=O)c12          3.84 µM
2            C(=N\Nc1ccc2ccccc2n1)/c1ccccn1         0.483 µM
3  CN(C)c1ccc2[nH]c3c(C(N)=O)cc(=O)c(=O)c=3oc2c1          1.95 µM

# get_value(readout='GI50', item= "COc1ccc2c(c1)-c1c(c3cc(OC)ccc3n(CCN(C)C)c1=O)C2=O" )
0.32 µM

What about "Cn1c(I)c(C#C[Si](C)(C)C)c(=O)[nH]c1=O" ?
6.66 µM

What about "CC1=C[C@@H]2c3c(c(O)c(O)c4oc5cc(O)cc(O)c5c(=O)c34)[C@@H](c3cc(O)c(O)c4oc5cc(O)cc(O)c5c(=O)c34)[C@@H]2C(C)(C)C1" ?
3.91 µM

What about CCN1C(=O)N(CC)C2C1N=C(SC)N2/N=C/C=C/c1ccccc1OC (configuration not stated) ?
0.512 µM

What about "CC(=O)c1c(C)c2cnc(Nc3ccc(N4CCNCC4)cn3)nc2n(C2CCCC2)c1=O" ?
7.37 µM

What about "C[C@]12CCC(=O)C[C@@H]1CC[C@@H]1[C@@H]2CC[C@]2(C)[C@@H](OC(=O)N(CCCl)N=O)CC[C@@H]12" ?
0.734 µM

What about "O=C(C(=CN1CCN(C(=O)c2ccco2)C1=S)C(=O)c1ccccc1)c1ccccc1" ?
6.07 µM

What about CC1=C(C(=O)Nc2ccc(Cl)c(Cl)c2)C(c2cccc(Cl)c2)NC(=S)N1 (configuration not stated) ?
8.4 µM

What about "CCCCCCCCN=C(NCCCCCCCC)SCc1cccc2ccccc12" ?
1.27 µM

What about "FC(F)(F)c1cccc(-c2[nH]ncc2-c2nnnn2-c2ccccc2)c1" ?
9.76 µM
